# Experimental target: opioid receptor kappa (Homo sapiens, UniProt P41145)
# Construct: expressed in transfected cells
# Sequence (P41145 whole entry): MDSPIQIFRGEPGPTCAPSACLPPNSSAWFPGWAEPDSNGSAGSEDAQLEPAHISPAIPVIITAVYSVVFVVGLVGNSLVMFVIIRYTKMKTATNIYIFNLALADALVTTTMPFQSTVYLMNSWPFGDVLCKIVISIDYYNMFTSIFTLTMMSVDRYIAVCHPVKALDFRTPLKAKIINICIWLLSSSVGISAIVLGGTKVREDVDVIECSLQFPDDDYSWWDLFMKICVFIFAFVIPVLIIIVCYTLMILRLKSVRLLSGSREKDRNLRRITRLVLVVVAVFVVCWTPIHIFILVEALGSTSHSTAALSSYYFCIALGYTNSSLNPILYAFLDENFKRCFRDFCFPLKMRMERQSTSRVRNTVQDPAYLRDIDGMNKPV
# Protocol details: GTPγ[35S] binding assay, antagonism of dynorphin-A
# Format: biochemical
# Condition details: read-out: Kappa functional Ki (GTPγ[35S] binding)
# Method: Membranes were prepared from cells as described (Bass et al, 1996). […] Stimulation of GTPγ[^35S] binding was then quantified using a Wallac Microbeta and Ki calculations were done using Prism™ by Graphpad.
pKi: −log10 of the molar value. Counter-ions that a name gives are not always drawn.
Quantity: pKi

Solved entries (count: 6):
molecule="Cc1cc(C(N)=O)cc(Cl)c1-c1ccc(CNCCC(C)C)cc1 [4B-49]" quantity=pKi recorded_value=8.64
molecule="Cc1cc(C(N)=O)ccc1-c1ccc(CNCC2Cc3ccccc3C2)cc1 [4B-35]" quantity=pKi recorded_value=8.15
molecule="CCc1cc(C(N)=O)ccc1-c1c(C)cc(CNCCC2CCOCC2)cc1C [4B-76]" quantity=pKi recorded_value=8.09
molecule="Cc1cc(C(N)=O)ccc1-c1cc(F)c(CNC2CCCC2)c(F)c1 [4B-54]" quantity=pKi recorded_value=7.81
molecule="COc1cc(C(N)=O)ccc1-c1ccc(CNCCC(C)C)cc1 [4B-46]" quantity=pKi recorded_value=7.83
molecule="NC(=O)c1cccc(-c2ccc(CN[C@H]3c4ccccc4C[C@H]3O)cc2Cl)c1 [6A-03]" quantity=pKi recorded_value=8.03

(I) Cc1cc(C(N)=O)ccc1-c1ccc(CNCC2CCc3ccccc3O2)cc1 (centres unmarked) [4B-36]
(II) Cc1ncsc1CCNCc1ccc(-c2cccc(C(N)=O)c2)c(Cl)c1 [6A-08]
Looking at recorded values for pKi, does I or II come in lower? Please respond with the label that marks your chosen entry.
II
(II: 7.49, I: 8.19)

(A) Cc1cc(C(N)=O)ccc1-c1ccc(CNCCC2CCOCC2)c(F)c1 [4B-60]
(B) CC[C@@H](NCc1c(F)cc(-c2ccc(C(N)=O)cc2C)cc1F)c1ccccn1 [4B-52]
Given A and B , report the one with the higher recorded pKi. Please respond with the label that marks your chosen entry.
A

(A) CC(C)CCNCc1ccc(-c2ccc(C(N)=O)cc2Cl)cc1F [4B-64]
(B) Cc1cc(-c2nnc[nH]2)ccc1-c1ccc(C[NH2+]CCC(C)C)cc1 [E7-01, hydrochloride]
(C) Cc1cc(C(N)=O)ccc1-c1cc(F)c(CN[C@H](C)c2ccccn2)c(F)c1 [4B-53]
(D) NC(=O)c1cnc(-c2ccc(CNC3Cc4ccccc4C3)cc2)c(Cl)c1 [4C-02]
Order these by pKi, descending, and give the full ranking. Arrange the labels as the request states and list them.
D, A, B, C
(D: 8.71, A: 8.40, B: 7.89, C: 7.37)

(I) Cc1cc(CNCCC(C)C)ccc1-c1ccc(C(N)=O)cc1Cl [4B-62]
(II) Cc1cc(C(N)=O)ccc1-c1ccc(CNCc2ccccn2)cc1 [4B-44]
Given I and II , report the one with the higher recorded pKi. Please respond with the label that marks your chosen entry.
I
(I: 8.59, II: 7.59)

(A) CC(C)CCNCc1ccc(-c2ccc(-c3ncn[nH]3)cc2)cc1 [7B-01]
(B) Cc1cc(C(N)=O)cnc1-c1ccc(CNC2Cc3ccccc3C2)cc1 [4C-03]
Given A and B , report the one with the higher recorded pKi. Please respond with the label that marks your chosen entry.
B

(I) CCc1cc(C(N)=O)ccc1-c1cc(F)c(CNCCC(C)C)c(F)c1 [4B-81]
(II) Cc1cc(CNC2Cc3ccccc3C2)ccc1-c1ccc(C(N)=O)cc1C [4B-73]
Given I and II , report the one with the higher recorded pKi. Please respond with the label that marks your chosen entry.
II
(II: 9.50, I: 7.77)

(1) CC(C)CCNCc1ccc(-c2ccc(-c3ncn[nH]3)cc2)c(F)c1 [7B-04]
(2) Cc1cc(CNC2Cc3ccccc3C2)cc(Cl)c1-c1ccc(C(N)=O)cc1Cl [4B-82]
(3) NC(=O)c1ccc(-c2cc(F)c(CNCCC3CCOCC3)c(F)c2)c(Cl)c1 [4B-57]
(4) Cc1cc(C)n(CC(C)NCc2ccc(-c3cccc(C(N)=O)c3)c(Cl)c2)n1 (centres unmarked) [6A-05]
// smallest pKi at index 0, largest at the end Arrange the labels as the request states and list them.
4, 1, 3, 2
(4: 7.57, 1: 7.87, 3: 8.34, 2: 8.75)

(P) Cc1cc(C(N)=O)ccc1-c1cc(F)c(CNCCC2CCOCC2)c(F)c1 [4B-51]
(Q) NC(=O)c1ccc(-c2ccc(CNCCC3CCOCC3)cc2Cl)c(Cl)c1 [4B-67]
Looking at recorded values for pKi, does P or Q come in lower? Please respond with the label that marks your chosen entry.
Q
(Q: 8.44, P: 8.71)
